molecular target: human JAK1 (a.a. 837-1142) (Homo sapiens, UniProt P23458); assay: In vitro JAK kinase assay (HTRF, phosphorylation of biotinylated peptide), JAK1; assay type: biochemical; settings: read-out: JAK1 IC50 (nM) at 1 mM ATP, Table F, listed as 164, peak 2
Sequence (P23458 849-1154): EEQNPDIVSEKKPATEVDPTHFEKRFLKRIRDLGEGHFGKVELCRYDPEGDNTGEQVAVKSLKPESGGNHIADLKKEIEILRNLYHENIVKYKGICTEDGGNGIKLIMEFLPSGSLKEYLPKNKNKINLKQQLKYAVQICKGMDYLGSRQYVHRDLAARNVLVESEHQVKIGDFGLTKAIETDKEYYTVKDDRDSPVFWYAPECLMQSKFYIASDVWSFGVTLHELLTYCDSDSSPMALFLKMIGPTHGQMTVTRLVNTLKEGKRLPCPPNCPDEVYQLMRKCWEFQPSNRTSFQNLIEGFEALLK
readout-name: IC50

q: Tell me the measured IC50 of N#CCC1(n2cc(-c3ncnc4[nH]ccc34)cn2)CC(N2CCC(Oc3cc(CCO)nc(C(F)(F)F)n3)CC2)C1 (single isomer, unassigned; peak 2) [Example 164, peak 2] , please.
a: 25 to 100 nM

* * *

target: human JAK1 (a.a. 837-1142) (Homo sapiens, UniProt P23458); experiment: In vitro JAK kinase assay (HTRF, phosphorylation of biotinylated peptide), JAK1; type: biochemical; conditions: Table A; 1 mM ATP; read-out: JAK1 IC50
pIC50: −log10 of the molar value.
readout-name: pIC50

q: Recorded pIC50 for N#CC[C@]1(n2cc(-c3ncnc4[nH]ccc34)cn2)C[C@@H](N2CCN(C(=O)c3cncc(C(F)(F)F)n3)CC2)C1 [Example 14a] , please?
a: > 8.00

q: What do you get for N#CC[C@]1(n2cc(-c3ncnc4[nH]ccc34)cn2)C[C@@H](N2CCN(C(=O)c3cc(F)cc(C(F)(F)F)c3)CC2)C1 ?
a: > 8.00

q: Param item: N#CC[C@]1(n2cc(-c3ncnc4[nH]ccc34)cn2)C[C@@H](N2CCN(C(=O)c3ccnc(C(F)F)c3F)CC2)C1 [Example 11a]
a: 7.60 to 8.00

* * *

Provide the reported IC50 of each item.
target: human JAK1 (a.a. 837-1142) (Homo sapiens); assay: In vitro JAK kinase assay (HTRF, phosphorylation of biotinylated peptide), JAK1; assay type: biochemical; settings: Table F; 1 mM ATP

q: # query: IC50 of entry N#CC[C@]1(n2cc(-c3ncnc4[nH]ccc34)cn2)C[C@H](N2CCN(C(=O)N3CCC[C@@H]3C(F)(F)F)CC2)C1
a: 25 to 100 nM

q: Subsequent entry: N#CC[C@]1(n2cc(-c3ncnc4[nH]ccc34)cn2)C[C@H](N2CCN(C(=O)N3CC[C@H](O)C3)CC2)C1
a: 25 to 100 nM

q: Continue with CC[C@H](C)NC(=O)N1CCN([C@H]2C[C@](CC#N)(n3cc(-c4ncnc5[nH]ccc45)cn3)C2)CC1
a: < 10 nM

q: Then this molecule: CCN(CC)Cc1cc(OC2CCN([C@H]3C[C@](CC#N)(n4cc(-c5ncnc6[nH]ccc56)cn4)C3)CC2)cc(C(F)(F)F)c1
a: < 10 nM

q: Try the molecule N#CC[C@]1(n2cc(-c3ncnc4[nH]ccc34)cn2)C[C@@H](N2CCC(Oc3cc(CN4CCOC4=O)cc(C(F)(F)F)n3)CC2)C1 (single isomer, unassigned) [Example 165, peak 1]
a: 25 to 100 nM

q: CS(=O)(=O)N1CCN([C@H]2C[C@](CC#N)(n3cc(-c4ncnc5[nH]ccc45)cn3)C2)CC1 , same question.
a: < 10 nM

q: CCNCc1cc(C(=O)N2CCN([C@H]3C[C@](CC#N)(n4cc(-c5ncnc6[nH]ccc56)cn4)C3)CC2)nc(C(F)(F)F)n1 ?
a: < 10 nM

q: Field entry: CC(C)[C@@H](C)NC(=O)N1CCN([C@H]2C[C@@](CC#N)(n3cc(-c4ncnc5[nH]ccc45)cn3)C2)CC1
a: < 10 nM

q: Now this one: N#CC[C@]1(n2cc(-c3ncnc4[nH]ccc34)cn2)C[C@H](N2CCN(C(=O)c3cc(CN)nc(C(F)(F)F)n3)CC2)C1
a: < 10 nM

q: Same question for N#CC[C@]1(n2cc(-c3ncnc4[nH]ccc34)cn2)C[C@H](N2CCC(Oc3cc(CNCCCO)cc(C(F)(F)F)n3)CC2)C1 please.
a: < 10 nM

q: Please answer likewise for CN(C)Cc1cc(OC2CCN([C@H]3C[C@](CC#N)(n4cc(-c5ncnc6[nH]ccc56)cn4)C3)CC2)nc(C(F)(F)F)c1
a: < 10 nM

q: Same read-out for CN(C(=O)N1CCN([C@H]2C[C@](CC#N)(n3cc(-c4ncnc5[nH]ccc45)cn3)C2)CC1)C1CC1 ?
a: < 10 nM

q: // query: N#CC[C@]1(n2cc(-c3ncnc4[nH]ccc34)cn2)C[C@@H](N2CCC(Oc3cc(C#N)cc(C(F)(F)F)n3)CC2)C1 (single isomer, unassigned)
a: 25 to 100 nM
